Target: Monoamine oxidase (Rattus norvegicus, UniProt P19643+P21396)
Sequence (P19643 whole entry): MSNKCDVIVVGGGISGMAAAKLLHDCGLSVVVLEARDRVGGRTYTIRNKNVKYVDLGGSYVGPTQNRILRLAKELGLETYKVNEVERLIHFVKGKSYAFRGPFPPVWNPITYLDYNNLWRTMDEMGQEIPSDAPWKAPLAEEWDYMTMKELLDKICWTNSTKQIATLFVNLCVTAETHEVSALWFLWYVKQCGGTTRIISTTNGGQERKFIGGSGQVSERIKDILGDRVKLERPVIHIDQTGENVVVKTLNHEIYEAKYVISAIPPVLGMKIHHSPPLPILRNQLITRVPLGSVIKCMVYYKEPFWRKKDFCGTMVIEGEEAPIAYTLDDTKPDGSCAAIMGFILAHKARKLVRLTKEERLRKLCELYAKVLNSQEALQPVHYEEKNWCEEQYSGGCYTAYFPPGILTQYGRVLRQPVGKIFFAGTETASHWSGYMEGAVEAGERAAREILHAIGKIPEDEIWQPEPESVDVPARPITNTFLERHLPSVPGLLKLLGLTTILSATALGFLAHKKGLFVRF
Sequence (P21396 whole entry): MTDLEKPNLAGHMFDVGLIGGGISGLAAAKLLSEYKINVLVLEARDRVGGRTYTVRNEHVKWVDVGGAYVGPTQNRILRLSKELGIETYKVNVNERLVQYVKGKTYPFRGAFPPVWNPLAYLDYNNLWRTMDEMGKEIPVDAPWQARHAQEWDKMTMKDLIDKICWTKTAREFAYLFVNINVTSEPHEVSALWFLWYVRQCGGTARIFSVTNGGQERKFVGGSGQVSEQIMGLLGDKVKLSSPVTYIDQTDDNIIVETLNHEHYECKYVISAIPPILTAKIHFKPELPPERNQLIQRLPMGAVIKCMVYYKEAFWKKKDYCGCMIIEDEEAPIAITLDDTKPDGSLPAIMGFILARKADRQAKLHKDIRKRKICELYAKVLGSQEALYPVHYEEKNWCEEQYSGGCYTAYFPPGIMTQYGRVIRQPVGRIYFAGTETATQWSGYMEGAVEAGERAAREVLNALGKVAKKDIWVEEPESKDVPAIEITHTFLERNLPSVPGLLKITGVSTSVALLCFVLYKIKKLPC
Experiment: Compound was tested in vitro for inhibition of MAO by using [14C]phenylethylamine as substrate in rat brain mitochondrial preparation
Type: tissue-based
Field: IC50. Provide a value for each of the compounds that follow.
Write it as a number; the unit µM goes unstated.

Which IC50 value belongs to Cc1cc2c(cc1CC(C)N)CCN2 (stereo not drawn) ?
170

Would you kindly repeat that for "CC(C)(N)Cc1ccc2c(c1)CCN2" ?
2600

Would you kindly repeat that for CC(N)Cc1ccc2c(c1Cl)CCN2 (stereo not drawn) ?
800

Would you kindly repeat that for CCN1CCc2cc(CC(C)N)c(C)cc21 (stereo not drawn) ?
77

====

Field: ED50. Provide a value for each of the compounds that follow.
System: Rattus norvegicus
Assay: Compound (po) was tested in vivo for inhibition of MAO activity remaining inside (N) NE synaptosomes of rat hypothalamus
Type: functional
Write it as a number; the unit µmol/kg goes unstated.

Which ED50 value belongs to CCC(N)Cc1ccc2c(c1Cl)CCN2 (stereo not given) ?
11

Would you kindly repeat that for CCN1CCc2c1ccc(CC(C)N)c2C (stereo not given) ?
9

Would you kindly repeat that for Cc1c(CC(C)N)ccc2c1CCN2 (stereo not given) ?
1.1

Would you kindly repeat that for "CC(C)(N)Cc1ccc2c(c1)CCN2" ?
12

Would you kindly repeat that for CC(N)Cc1ccc2c(c1)CCN2 (stereo not given) ?
1.1

Would you kindly repeat that for CCC(N)Cc1ccc2c(c1)CCN2 (stereo not given) ?
32

Would you kindly repeat that for Cc1cc2c(cc1CC(C)N)CCN2 (stereo not given) ?
49

Would you kindly repeat that for CC(N)Cc1ccc2c(c1Cl)CCN2 (stereo not given) ?
1.6

Would you kindly repeat that for CCN1CCc2cc(CC(C)N)c(C)cc21 (stereo not given) ?
17

Would you kindly repeat that for Cc1cc(N(C)C)ccc1CC(C)N (stereo not given) ?
2
